Read-out: Cytochrome P450 2B6 (Homo sapiens)
method-summary: CLD_CYP2B6_24hr: CellzDirect (CLD) Gene Expression Assay for xenobiotic metabolism (CYP2B6) at 24 hours (AID 2283686)
Records with an inconclusive call do not appear. The source made the active and inactive calls. How the source made its calls: active means hit-call score of the fitted dose curve at least 0.9, where 1 is the maximum; inconclusive means response in the unintended direction; inactive means score below 0.9.
Outcomes you can answer with include only these: active, inactive

Request: Tell me the recorded outcome of this test for COP(=O)(OC)OC=C(Cl)Cl .
Result: inactive

Request: Tell me the recorded outcome of this test for N#Cc1c(Cl)c(Cl)c(Cl)c(C#N)c1Cl .
Result: inactive

Request: Tell me the recorded outcome of this test for CC(C)(C)C(O)C(Oc1ccc(Cl)cc1)n1cncn1 (configuration not stated) .
Result: active

Request: Tell me the recorded outcome of this test for Clc1ccccc1-c1nnc(-c2ccccc2Cl)nn1 .
Result: active

Request: Tell me the recorded outcome of this test for CC1(C)C(C=C(Cl)Cl)C1C(=O)OC(C#N)c1ccc(F)c(Oc2ccccc2)c1 (configuration not stated) .
Result: inactive

Request: Tell me the recorded outcome of this test for CCCN(CCC)c1c([N+](=O)[O-])cc(C(F)(F)F)cc1[N+](=O)[O-] .
Result: active

Request: Tell me the recorded outcome of this test for C[C@H]1[C@H](c2ccc(Cl)cc2)SC(=O)N1C(=O)NC1CCCCC1 .
Result: active

* * *

Read-out: Cytochrome P450 (CYP1A1), CYP1A1 (gene 1543)
method-summary: LTEA_HepaRG_CYP1A1: Life Technologies and Expression Analysis (LTEA) Assay for Cytochrome P450 (CYP1A1) using HepaRG (AID 2283454)
condition-notes: mRNA level, 48 h; actives raise or lower the signal
The source made the active and inactive calls. The calls were made as follows: active = hit-call score of the fitted dose curve at least 0.9, where 1 is the maximum; inactive = score below 0.9.
Outcomes you can answer with include only these: 1.0 = active, 0.0 = inactive

Request: Tell me the recorded outcome of this test for CNC(=O)CSP(=S)(OC)OC .
Result: 1.0

Request: Tell me the recorded outcome of this test for CNC(=O)Oc1cccc(N=CN(C)C)c1 .
Result: 1.0

Request: Tell me the recorded outcome of this test for CC1(C)C(C=C(Cl)Cl)C1C(=O)OC(C#N)c1ccc(F)c(Oc2ccccc2)c1 (stereo not given) .
Result: 1.0

Request: Tell me the recorded outcome of this test for OCCOc1ccccc1 .
Result: 1.0

Request: Tell me the recorded outcome of this test for O=[N+]([O-])c1c(Cl)c(Cl)c(Cl)c(Cl)c1Cl .
Result: 1.0

Request: Tell me the recorded outcome of this test for O=C1c2ccccc2C(=O)N1SC(Cl)(Cl)Cl .
Result: 0.0

Request: Tell me the recorded outcome of this test for CCN(CC)C(=O)SCc1ccc(Cl)cc1 .
Result: 1.0

Request: Tell me the recorded outcome of this test for CCOCN(C(=O)CCl)c1c(C)cccc1CC .
Result: 1.0

Request: Tell me the recorded outcome of this test for CCC(C)(NC(=O)c1cc(Cl)c(C)c(Cl)c1)C(=O)CCl (stereo not given) .
Result: 1.0

Request: Tell me the recorded outcome of this test for CCC(C)(C)C(=O)OC1=C(c2ccc(Cl)cc2Cl)C(=O)OC12CCCCC2 .
Result: 1.0

Request: Tell me the recorded outcome of this test for O=C(NC(=O)c1c(F)cccc1F)Nc1ccc(OC(F)(F)C(F)OC(F)(F)F)c(Cl)c1 (stereo not given) .
Result: 1.0

Request: Tell me the recorded outcome of this test for CC1(c2ccc(Oc3ccccc3)cc2)OC(=O)N(Nc2ccccc2)C1=O (stereo not given) .
Result: 1.0

Request: Tell me the recorded outcome of this test for Cc1[nH]c(=O)n(C(C)(C)C)c(=O)c1Cl .
Result: 1.0

Request: Tell me the recorded outcome of this test for C[C@H]1[C@H](c2ccc(Cl)cc2)SC(=O)N1C(=O)NC1CCCCC1 .
Result: 1.0

Request: Tell me the recorded outcome of this test for CN1CSC(=S)N(C)C1 .
Result: 1.0

Request: Tell me the recorded outcome of this test for CC[C@H](C)[C@H]1O[C@]2(C=C[C@@H]1C)C[C@@H]1C[C@@H](C/C=C(\C)[C@@H](O[C@H]3C[C@H](OC)[C@@H](O[C@H]4C[C@H](OC)[C@@H](O)[C@H](C)O4)[C@H](C)O3)[C@@H](C)/C=C/C=C3\CO[C@@H]4[C@H](O)C(C)=C[C@@H](C(=O)O1)[C@]34O)O2 (tested in a mixture with another compound) .
Result: 1.0

Request: Tell me the recorded outcome of this test for N#CN .
Result: 0.0

Request: Tell me the recorded outcome of this test for COP(=O)(OC)OC=C(Cl)Cl .
Result: 0.0

Request: Tell me the recorded outcome of this test for CC(C)N(C(=O)COc1nnc(C(F)(F)F)s1)c1ccc(F)cc1 .
Result: 1.0

Request: Tell me the recorded outcome of this test for O=C(O)CCCOc1ccc(Cl)cc1Cl .
Result: 1.0
